Hi there, I'd appreciate the recorded pKi for every entry that follows.
Target chain: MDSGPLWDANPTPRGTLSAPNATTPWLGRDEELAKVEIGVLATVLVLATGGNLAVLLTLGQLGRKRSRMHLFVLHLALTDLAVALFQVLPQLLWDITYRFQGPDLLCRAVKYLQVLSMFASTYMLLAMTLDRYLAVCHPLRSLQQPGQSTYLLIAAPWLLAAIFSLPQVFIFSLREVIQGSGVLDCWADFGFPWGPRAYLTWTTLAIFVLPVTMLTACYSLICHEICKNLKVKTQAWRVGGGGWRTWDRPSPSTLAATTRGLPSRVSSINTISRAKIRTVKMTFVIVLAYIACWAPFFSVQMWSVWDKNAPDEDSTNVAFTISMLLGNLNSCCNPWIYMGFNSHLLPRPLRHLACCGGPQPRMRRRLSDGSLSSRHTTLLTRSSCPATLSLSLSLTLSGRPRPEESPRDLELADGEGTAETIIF
pKi: −log10 of the molar value.

Identify pKi associated with the molecule COc1ccc(S(=O)(=O)n2c(=O)n(C(C(=O)N3CCN(CC4CCCN(C)C4)CC3)c3ccccc3)c3cc(Cl)ccc32)cc1 (stereo not drawn) [Example 96]
6.30 to 7.00

Identify pKi associated with the molecule CCN1CCN([C@H]2CCCN(C(=O)C(c3ccccc3)n3c(=O)n(S(=O)(=O)c4ccc(OC)cc4)c4ccc(C#N)cc43)C2)CC1 (stereo partly drawn) [Example 231, trifluoroacetic acid]
> 7.00

Identify pKi associated with the molecule COc1ccc(S(=O)(=O)n2c(=O)n(C(C(=O)N3CC[C@@H](N)C3)c3ccccc3)c3cc(Cl)ccc32)cc1 (stereo partly drawn) [Example 169]
5.00 to 6.30

Identify pKi associated with the molecule COc1ccc(S(=O)(=O)n2c(=O)n(C(C(=O)N3CC[C@@H](N4CCN(Cc5ccccc5)CC4)C3)c3ccccc3)c3cc(C#N)ccc32)cc1 (stereo partly drawn) [Example 144]
5.00 to 6.30

Identify pKi associated with the molecule CCN(CCN(C)C)C(=O)C(c1ccccc1)n1c(=O)n(S(=O)(=O)c2ccc(OC)cc2)c2ccc(Cl)cc21 (stereo not drawn) [Example 118]
> 7.00

Identify pKi associated with the molecule COc1ccccc1S(=O)(=O)n1c(=O)n(C(C(=O)N2CCN(c3ccncc3)CC2)c2ccccc2)c2cc(Cl)ccc21 (stereo not drawn) [Example 45]
6.30 to 7.00

====

Hi there, I'd appreciate the recorded Ki for every entry that follows.
Target: human vasopressin V1b receptor (Homo sapiens, UniProt P47901)
Construct: expressed in transfected cells; host or cells: CHO-K1 (cell line hV1b-3H2_CHO), membrane preparation
Sequence (P47901 1-424): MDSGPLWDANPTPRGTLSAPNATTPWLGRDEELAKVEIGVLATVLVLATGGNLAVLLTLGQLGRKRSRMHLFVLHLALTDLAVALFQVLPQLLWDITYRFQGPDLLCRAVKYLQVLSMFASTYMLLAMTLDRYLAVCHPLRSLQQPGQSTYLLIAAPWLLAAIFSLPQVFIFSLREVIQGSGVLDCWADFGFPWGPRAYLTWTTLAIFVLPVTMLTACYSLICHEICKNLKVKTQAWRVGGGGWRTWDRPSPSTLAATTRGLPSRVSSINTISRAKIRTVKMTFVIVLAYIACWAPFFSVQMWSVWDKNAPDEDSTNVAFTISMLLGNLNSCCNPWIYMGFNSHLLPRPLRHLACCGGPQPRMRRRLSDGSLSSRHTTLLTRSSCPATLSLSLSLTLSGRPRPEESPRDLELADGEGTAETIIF
Test: Vasopressin V1b receptor binding assay
Details: membranes from CHO-K1 cells with stably expressed human V1b receptors; displacement of 1.5 nM 3H-AVP; read-out: V1b receptor affinity (affinity constant Ki)

Identify Ki associated with the compound COc1ccc(S(=O)(=O)n2c(=O)n(C(C(=O)N3CC[C@@H](N4CCN(C)CC4)C3)c3ccccc3)c3cc(Cl)ccc32)cc1 (stereo partly shown)
< 100 nM

Identify Ki associated with the compound CCCN1CCN(C2CCN(C(=O)C(C)n3c(=O)n(S(=O)(=O)c4ccc(OC)cc4)c4ccc(Cl)cc43)C2)CC1 (stereo not shown)
100 to 500 nM

Identify Ki associated with the compound COc1ccc(S(=O)(=O)n2c(=O)n(C(C(=O)N3CCC[C@@H](N)C3)c3ccccc3)c3cc(C#N)ccc32)cc1 (stereo partly shown)
500 to 10000 nM

Identify Ki associated with the compound COc1ccc(S(=O)(=O)n2c(=O)n(C(C(=O)N3CCN(c4ccncc4)CC3)c3cccc(OC)c3)c3cc(Cl)ccc32)cc1 (stereo not shown)
< 100 nM

====

Target protein (sequence): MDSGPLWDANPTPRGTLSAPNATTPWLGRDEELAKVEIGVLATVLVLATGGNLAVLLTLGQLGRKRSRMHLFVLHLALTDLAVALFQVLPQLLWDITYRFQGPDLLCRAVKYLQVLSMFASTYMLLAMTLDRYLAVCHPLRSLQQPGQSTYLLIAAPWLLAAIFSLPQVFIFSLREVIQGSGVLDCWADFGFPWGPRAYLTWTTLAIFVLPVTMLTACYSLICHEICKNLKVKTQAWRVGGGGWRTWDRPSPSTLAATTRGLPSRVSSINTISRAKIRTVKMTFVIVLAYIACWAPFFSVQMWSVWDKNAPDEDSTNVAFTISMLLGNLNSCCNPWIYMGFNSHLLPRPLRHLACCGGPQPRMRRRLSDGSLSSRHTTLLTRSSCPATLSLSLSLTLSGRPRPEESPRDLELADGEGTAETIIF
measured.endpoint: Ki

Identify Ki associated with the compound COc1ccc(S(=O)(=O)n2c(=O)n(C(C(=O)N3CCC(N)CC3)c3ccccc3)c3cc(C#N)ccc32)cc1 (stereo not drawn) [Example 239]
0.5 to 10 µM

Identify Ki associated with the compound COc1ccc(S(=O)(=O)n2c(=O)n(C(C(=O)N[C@@H]3CCNC3)c3ccccc3)c3cc(Cl)ccc32)cc1 (stereo partly drawn) [Example 174]
0.5 to 10 µM

Identify Ki associated with the compound COc1ccc(S(=O)(=O)n2c(=O)n(C(C(=O)N3CC[C@H](NC4CCN(C(C)C)CC4)C3)c3ccccc3)c3cc(C#N)ccc32)cc1 (stereo partly drawn) [Example 208]
< 0.1 µM

Identify Ki associated with the compound COc1ccc(S(=O)(=O)n2c(=O)n(C(C(=O)N3CC[C@H](NCc4c[nH]cn4)C3)c3ccccc3)c3cc(C#N)ccc32)cc1 (stereo partly drawn) [Example 242, trifluoroacetic acid]
< 0.1 µM

Identify Ki associated with the compound COc1ccc(S(=O)(=O)n2c(=O)n(C(C(=O)N3CC[C@H](NC(=O)OC(C)(C)C)C3)c3ccccc3)c3cc(C#N)ccc32)cc1 (stereo partly drawn) [Example 216]
0.5 to 10 µM

Identify Ki associated with the compound COc1ccc(S(=O)(=O)n2c(=O)n(C(C(=O)N3CC[C@H](CN4CCNCC4)C3)c3ccccc3)c3cc(C#N)ccc32)cc1 (stereo partly drawn) [Example 226]
< 0.1 µM

====

Target: human vasopressin V1b receptor (Homo sapiens)
Construct: expressed in transfected cells; host or cells: CHO-K1 (cell line hV1b-3H2_CHO), membrane preparation
Sequence (P47901 1-424): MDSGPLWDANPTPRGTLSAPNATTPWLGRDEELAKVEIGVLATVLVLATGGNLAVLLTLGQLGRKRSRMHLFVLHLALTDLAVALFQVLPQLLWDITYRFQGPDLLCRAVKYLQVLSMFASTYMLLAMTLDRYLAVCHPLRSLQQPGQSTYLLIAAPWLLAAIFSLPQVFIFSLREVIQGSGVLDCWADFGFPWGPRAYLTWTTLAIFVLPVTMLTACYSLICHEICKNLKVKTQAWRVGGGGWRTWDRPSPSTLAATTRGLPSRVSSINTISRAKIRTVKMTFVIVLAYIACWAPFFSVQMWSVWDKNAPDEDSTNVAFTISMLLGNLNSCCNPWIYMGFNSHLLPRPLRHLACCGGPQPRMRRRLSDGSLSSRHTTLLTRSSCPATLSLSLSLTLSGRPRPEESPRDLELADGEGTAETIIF
Experiment: Vasopressin V1b receptor binding assay
Details: membranes from CHO-K1 cells with stably expressed human V1b receptors; displacement of 1.5 nM 3H-AVP; read-out: V1b receptor affinity (affinity constant Ki)
measured.endpoint: Ki

Identify Ki associated with the molecule COc1ccc(S(=O)(=O)n2c(=O)n(C(C(=O)N3CCN(C4CCCNC4)CC3)c3ccccc3)c3cc(Cl)ccc32)cc1 (stereo not shown) [Example 165]
500 to 10000 nM

Identify Ki associated with the molecule COc1ccc(S(=O)(=O)n2c(=O)n(C(C(=O)N3CCC(N4CCN(C)CC4)CC3)c3ccccc3)c3cc(Cl)ccc32)c(OC)c1 (stereo not shown) [Example 63]
100 to 500 nM

Identify Ki associated with the molecule COc1ccc(S(=O)(=O)n2c(=O)n(C(C(=O)N3CCN(c4ccncc4)CC3)c3ccccc3)c3cc(Cl)ccc32)cc1 (stereo not shown) [Example 58]
< 100 nM

Identify Ki associated with the molecule CN1CCC(N2CCN(C(=O)C(c3ccccc3)n3c(=O)n(S(=O)(=O)c4cccc5cccnc45)c4cc(Cl)c(Cl)cc43)CC2)CC1 (stereo not shown) [Example 35]
500 to 10000 nM

Identify Ki associated with the molecule COc1ccc(S(=O)(=O)n2c(=O)n(C(C(=O)N3CCOCC3)c3ccccc3)c3cc(Cl)ccc32)cc1 (stereo not shown) [Example 99]
500 to 10000 nM

Identify Ki associated with the molecule COc1ccc(S(=O)(=O)n2c(=O)n(C(C(=O)N3CC[C@H](N4CCN(C(C)C)CC4)C3)c3ccccc3)c3cc(C#N)ccc32)cc1 (stereo partly shown) [Example 189]
< 100 nM

Identify Ki associated with the molecule COc1ccc(S(=O)(=O)n2c(=O)n(C(C(=O)N3CC[C@H](N)C3)c3ccccc3)c3cc(C#N)ccc32)cc1 (stereo partly shown) [Example 171]
500 to 10000 nM

Identify Ki associated with the molecule CCCN1CCN(CCNC(=O)C(c2ccccc2)n2c(=O)n(S(=O)(=O)c3ccc(OC)cc3)c3ccc(Cl)cc32)CC1 (stereo not shown) [Example 133]
100 to 500 nM

Identify Ki associated with the molecule COc1ccc(S(=O)(=O)n2c(=O)n(C(C(=O)N3CCN(c4ccncc4)CC3)c3ccccc3OC)c3cc(Cl)ccc32)c(OC)c1 (stereo not shown) [Example 12]
500 to 10000 nM

Identify Ki associated with the molecule COc1ccc(S(=O)(=O)n2c(=O)n(C(C(=O)N(C)CCc3ccccn3)c3ccccc3)c3cc(Cl)ccc32)cc1 (stereo not shown) [Example 120]
500 to 10000 nM

Identify Ki associated with the molecule CN1CCC(N2CCN(C(=O)C(c3ccccc3)n3c(=O)n(S(=O)(=O)c4ccc(C#N)cc4)c4ccc(Cl)cc43)CC2)CC1 (stereo not shown) [Example 68]
100 to 500 nM

Identify Ki associated with the molecule N#Cc1ccc(S(=O)(=O)n2c(=O)n(CC(=O)N3CCN(c4ccncc4)CC3)c3cc(Cl)ccc32)cc1 [Example 26]
500 to 10000 nM

Identify Ki associated with the molecule COc1ccc(S(=O)(=O)n2c(=O)n(C(C(=O)N3CCN(C4CCN(C)CC4)CC3)c3ccccc3)c3cc(Cl)ccc32)cc1 (stereo not shown) [Example 55]
100 to 500 nM
